All figures here come from patent US20060257938A1.

Test: Probe fluorescence ratio response to linolenic acid relative to ADIFAB2
Format: binding
Details: response relative to ADIFAB2

molecule	DR/DR LNA
21W 78A 102V 72A (protein, listed as Rattus norvegicus, PEPTIDE (1)...(131) wild-type rat intestinal fatty acid binding protein) AFDGTWKVDRNENYEKFMEKWGINVVKRKLGAHDNLKLTITQEGNKFTVKESSNFRNIDVVFELGVDFAYSAADGTEATGTWTMEGNKLVGKFKRVDNGKEVIAVREISGNELIQTYTYEGVEAKRIFKKE	1.628
49Q, 72A (protein, listed as Rattus norvegicus, PEPTIDE (1)...(131) wild-type rat intestinal fatty acid binding protein) AFDGTWKVDRNENYEKFMEKMGINVVKRKLGAHDNLKLTITQEGNKFTQKESSNFRNIDVVFELGVDFAYSAADGTELTGTWTMEGNKLVGKFKRVDNGKELIAVREISGNELIQTYTYEGVEAKRIFKKE	0.55
31P1, 72A (protein, listed as Rattus norvegicus, PEPTIDE (1)...(131) wild-type rat intestinal fatty acid binding protein) AFDGTWKVDRNENYEKFMEKMGINVVKRKLPAHDNLKLTITQEGNKFTVKESSNFRNIDVVFELGVDFAYSAADGTELTGTWTMEGNKLVGKFKRVDNGKELIAVREISGNELIQTYTYEGVEAKRIFKKE	0.27
115T3, 72A (protein, listed as Rattus norvegicus, PEPTIDE (1)...(131) wild-type rat intestinal fatty acid binding protein) AFDGTWKVDRNENYEKFMEKMGINVVKRKLGAHDNLKLTITQEGNKFTVKESSNFRNIDVVFELGVDFAYSAADGTELTGTWTMEGNKLVGKFKRVDNGKELIAVREISGNELITTYTYEGVEAKRIFKKE	0.54
115L3, 72A (protein, listed as Rattus norvegicus, PEPTIDE (1)...(131) wild-type rat intestinal fatty acid binding protein) AFDGTWKVDRNENYEKFMEKMGINVVKRKLGAHDNLKLTITQEGNKFTVKESSNFRNIDVVFELGVDFAYSAADGTELTGTWTMEGNKLVGKFKRVDNGKELIAVREISGNELILTYTYEGVEAKRIFKKE	1.29
21F 78V 102V 72A (protein, listed as Rattus norvegicus, PEPTIDE (1)...(131) wild-type rat intestinal fatty acid binding protein) AFDGTWKVDRNENYEKFMEKFGINVVKRKLGAHDNLKLTITQEGNKFTVKESSNFRNIDVVFELGVDFAYSAADGTEVTGTWTMEGNKLVGKFKRVDNGKEVIAVREISGNELIQTYTYEGVEAKRIFKKE	3.775
117F, 72A (protein, listed as Rattus norvegicus, PEPTIDE (1)...(131) wild-type rat intestinal fatty acid binding protein) AFDGTWKVDRNENYEKFMEKMGINVVKRKLGAHDNLKLTITQEGNKFTVKESSNFRNIDVVFELGVDFAYSAADGTELTGTWTMEGNKLVGKFKRVDNGKELIAVREISGNELIQTFTYEGVEAKRIFKKE	1.38
23V, 72A (protein, listed as Rattus norvegicus, PEPTIDE (1)...(131) wild-type rat intestinal fatty acid binding protein) AFDGTWKVDRNENYEKFMEKMGVNVVKRKLGAHDNLKLTITQEGNKFTVKESSNFRNIDVVFELGVDFAYSAADGTELTGTWTMEGNKLVGKFKRVDNGKELIAVREISGNELIQTYTYEGVEAKRIFKKE	1.351
102C, 72A (protein, listed as Rattus norvegicus, PEPTIDE (1)...(131) wild-type rat intestinal fatty acid binding protein) AFDGTWKVDRNENYEKFMEKMGINVVKRKLGAHDNLKLTITQEGNKFTVKESSNFRNIDVVFELGVDFAYSAADGTELTGTWTMEGNKLVGKFKRVDNGKECIAVREISGNELIQTYTYEGVEAKRIFKKE	0.12
102D, 72A (protein, listed as Rattus norvegicus, PEPTIDE (1)...(131) wild-type rat intestinal fatty acid binding protein) AFDGTWKVDRNENYEKFMEKMGINVVKRKLGAHDNLKLTITQEGNKFTVKESSNFRNIDVVFELGVDFAYSAADGTELTGTWTMEGNKLVGKFKRVDNGKEDIAVREISGNELIQTYTYEGVEAKRIFKKE	0.61
126H, 72A (protein, listed as Rattus norvegicus, PEPTIDE (1)...(131) wild-type rat intestinal fatty acid binding protein) AFDGTWKVDRNENYEKFMEKMGINVVKRKLGAHDNLKLTITQEGNKFTVKESSNFRNIDVVFELGVDFAYSAADGTELTGTWTMEGNKLVGKFKRVDNGKELIAVREISGNELIQTYTYEGVEAKHIFKKE	0.46
